Molecular target: recombinant RORγ Ligand Binding Domain (LBD) protein (Homo sapiens, UniProt P51449)
Construct: 6×His; GST
Sequence (P51449 269-508 limits assumed): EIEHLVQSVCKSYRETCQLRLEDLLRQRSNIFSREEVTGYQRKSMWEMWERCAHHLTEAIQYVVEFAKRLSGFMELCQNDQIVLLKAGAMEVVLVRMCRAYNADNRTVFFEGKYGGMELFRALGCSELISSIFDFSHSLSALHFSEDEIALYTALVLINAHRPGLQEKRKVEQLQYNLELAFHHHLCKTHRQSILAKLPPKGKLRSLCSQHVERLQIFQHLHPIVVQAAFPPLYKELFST
Experiment: Radio-Ligand RORγ Binding Assay (Assay 1)
Settings: radio-ligand competition, 25-hydroxy [26,27-3H]-cholesterol, RORγ LBD; read-out: Avg ROR Bind Ki
pKi: −log10 of the molar value.
readoutName: pKi

INSERT INTO results (compound, result) VALUES
  ('CC[C@@H]1CN(c2ncc(C(F)(F)F)cn2)Cc2cc(C(=O)NCc3ccc(S(=O)(=O)CC)cc3)ccc21 (single isomer, unassigned)', '> 7.00'),
  ('CCS(=O)(=O)c1ccc(CNC(=O)c2ccc3c(c2)CN(c2ncc(-c4ccc(=O)[nH]c4)cn2)C[C@@H]3C(C)C)cc1 (single isomer, unassigned)', '< 6.00'),
  ('CCc1cc2cc(C(=O)NCc3ccc(S(=O)(=O)CC)cc3)ccc2c(OC[C@H]2CC[C@H](C(F)(F)F)CC2)n1', '> 7.00'),
  ('CCS(=O)(=O)c1ccc([C@H](CO)NC(=O)c2ccc3c(OC4CCN(CC(F)(F)F)CC4)nc(C)cc3c2)cc1', '> 7.00'),
  ('CCS(=O)(=O)c1ccc(CNC(=O)c2ccc3c(c2)CCN(c2ncc(C#N)cn2)[C@H]3C(C)C)cc1 (single isomer, unassigned)', '6.00 to 7.00'),
  ('CCS(=O)(=O)c1ccc(CNC(=O)c2ccc3c(c2)C(C)(C)CN(Cc2ccc(C#N)cc2)C3C(C)C)cc1 (single isomer, unassigned) [Hy2A-23.1]', '> 7.00'),
  ('CCS(=O)(=O)c1ccc(CNC(=O)c2ccc3c(c2)CN(Cc2ccc(F)cc2)C[C@@H]3C(C)C)cc1 (single isomer, unassigned)', '> 7.00'),
  ('CCS(=O)(=O)c1ccc([C@H](CO)NC(=O)c2ccc3c(OC[C@H]4CC[C@H](C(F)(F)F)CC4)nc(C4CC4)cc3c2)cc1', '> 7.00'),
  ('CCS(=O)(=O)c1ccc(CNC(=O)c2ccc3c(c2)CN(Cc2ccc(C#N)cc2)C[C@@H]3C(C)C)cc1 (single isomer, unassigned)', '> 7.00'),
  ('CC[C@@H]1CN(c2ccc(C(F)(F)F)cc2)Cc2cc(C(=O)NCc3ccc(S(=O)(=O)CC)cc3)ccc21 (single isomer, unassigned)', '> 7.00'),
  ('CC[C@@H]1CN(c2ncc(-c3ncco3)cn2)Cc2cc(C(=O)N[C@@H](CO)c3ccc(S(=O)(=O)CC)cc3)ccc21 (single isomer, unassigned)', '> 7.00'),
  ('CCC1CN(C2CCC(C(F)(F)F)CC2)Cc2cc(C(=O)NC(CO)c3ccc(S(=O)(=O)CC)cc3)ccc21 (single isomer, unassigned) [Hy7-35.3]', '> 7.00'),
  ('CCS(=O)(=O)c1ccc(CNC(=O)c2ccc3c(c2)CCN(Cc2ccc(Cl)cc2)C3C)cc1 (racemic)', '> 7.00'),
  ('CC[C@H]1CN(c2ncc(C(F)(F)F)cc2C)Cc2cc(C(=O)N[C@@H](CO)c3ccc(S(=O)(=O)CC)cc3)ccc21 (single isomer, unassigned)', '> 7.00'),
  ('CCS(=O)(=O)c1ccc(CNC(=O)c2ccc3c(c2)CN(c2nccc(C(F)(F)F)n2)C[C@@H]3C(C)C)cc1 (single isomer, unassigned)', '> 7.00'),
  ('CCS(=O)(=O)c1ccc(CNC(=O)c2ccc3c(c2)CN(c2ncc(-c4ccnc(OC)c4)cn2)C[C@H]3C(C)C)cc1 (single isomer, unassigned)', '> 7.00'),
  ('CCS(=O)(=O)c1ccc(CNC(=O)c2ccc3c(c2)CCN(Cc2ccc(C#N)nc2)[C@@H]3C(C)C)cc1 (single isomer, unassigned)', '6.00 to 7.00'),
  ('CCS(=O)(=O)c1ccc(CNC(=O)c2ccc3c(c2)C(C)(C)CN(Cc2cnc(C)cn2)[C@H]3C(C)C)cc1 (single isomer, unassigned)', '> 7.00'),
  ('CCS(=O)(=O)c1ccc(CNC(=O)c2ccc3c(c2)CN(c2ncc(C(F)(F)F)cn2)C[C@@H]3C(F)(F)F)cc1 (single isomer, unassigned)', '> 7.00'),
  ('CCS(=O)(=O)c1ccc(CNC(=O)c2sc3nc(C)nc(OCc4ccc(C(F)(F)F)cc4)c3c2C)cc1', '> 7.00');
